# Assayed system: Pseudomonas aeruginosa LpxC enzyme (Pseudomonas aeruginosa (strain ATCC 15692 / DSM 22644 / CIP 104116 / JCM 14847 / LMG 12228 / 1C / PRS 101 / PAO1))
# Test summary: biochemical
# Format: biochemical
# Conditions used: inhibitory activity on Pseudomonas aeruginosa LpxC enzyme, class symbols A/B/C; read-out: Enzyme inhibitory activity
Readout: IC50

# count of solved cases: 5
[[record]]
compound = "CNC(=O)C(C(=O)NO)N(C)C(=O)c1ccc(-c2ccccc2)cc1O (stereo not drawn)"
measured = "> 100 nM"

[[record]]
compound = "CNC(=O)C(C(=O)NO)N(C)C(=O)C1CCC(c2ccc(Cl)cc2)CC1 (stereo not drawn)"
measured = "> 100 nM"

[[record]]
compound = "CNC(=O)[C@@](C)(C(=O)NO)N(C)C(=O)c1ccc(C#Cc2ccc(CCN3CCCOCC3)cc2)cc1"
measured = "< 10 nM"

[[record]]
compound = "CNC(=O)C(C(=O)NO)N(C)C(=O)c1ccc(-c2ccc(CC(=O)N(C)C)cc2)cc1 (stereo not drawn)"
measured = "10 to 100 nM"

[[record]]
compound = "CNC(=O)C(C(=O)NO)N(C)C(=O)c1ccc(-c2ccc(OCCCN3CCSCC3)cc2)cc1 (stereo not drawn)"
measured = "< 10 nM"


Here is the next item to consider.
What IC50 value was documented for this compound, CNC(=O)C(C(=O)NO)N(C)C(=O)c1ccc(-c2ccc(N3CCOCC3)cc2)cc1 (stereo not drawn) ?
10 to 100 nM

###

# Assayed system: E. coli LpxC enzyme (Escherichia coli (strain K12), UniProt P0A725)
# Sequence (P0A725 whole entry): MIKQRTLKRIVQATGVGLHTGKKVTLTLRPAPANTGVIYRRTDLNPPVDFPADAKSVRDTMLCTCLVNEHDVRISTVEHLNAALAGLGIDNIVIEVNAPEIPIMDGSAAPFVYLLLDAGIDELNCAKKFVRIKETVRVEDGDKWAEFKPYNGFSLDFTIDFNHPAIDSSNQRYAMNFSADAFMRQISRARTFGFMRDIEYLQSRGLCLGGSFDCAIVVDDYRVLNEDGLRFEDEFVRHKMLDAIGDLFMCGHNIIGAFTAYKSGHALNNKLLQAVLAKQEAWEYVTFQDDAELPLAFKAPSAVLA
# Test summary: Inhibitory activity on E. coli LpxC enzyme (fluorescamine assay)
# Conditions used: Table 4
Readout: pIC50
Interpret pIC50 as the negative base-10 log of the concentration measured in mol/L.

[[record]]
compound = "CNC(=O)C(C(=O)NO)N(C)C(=O)c1ccc(C#C/C=C/c2ccc(CNC3CC3)cc2)cc1 (centres unmarked)"
measured = 7.11

[[record]]
compound = "CNC(=O)C(C(=O)NO)N(C)C(=O)c1ccc(C#CC#CC2CC2)cc1 (centres unmarked)"
measured = 7.92

[[record]]
compound = "CNC(=O)[C@@](C)(C(=O)NO)N(C)C(=O)c1ccc(-c2ccc3c(ccn3C)c2)cc1"
measured = 8.31

[[record]]
compound = "CNC(=O)[C@@](C)(C(=O)NO)N(C)C(=O)c1ccc(C#Cc2coc(COC)c2)cc1"
measured = 7.92


// switching to the query compound
What value of pIC50 has been recorded for this entry: CNC(=O)C(C(=O)NO)N(C)C(=O)c1ccc(C#Cc2ccc(CN3CCCOCC3)cc2)cc1 (centres unmarked)
6.92

###

# Assayed system: Pseudomonas aeruginosa LpxC enzyme (Pseudomonas aeruginosa (strain ATCC 15692 / DSM 22644 / CIP 104116 / JCM 14847 / LMG 12228 / 1C / PRS 101 / PAO1), UniProt P47205)
# Test summary: biochemical
# Assay type: biochemical
# Conditions used: inhibitory activity on Pseudomonas aeruginosa LpxC enzyme, class symbols A/B/C; read-out: Enzyme inhibitory activity
pIC50: −log10 of the molar value.
Entries and their pIC50 values follow.

Recorded pIC50, per entry:
[[record]]
molecule = "O=C(NC(C(=O)NO)C(=O)NCc1cccnc1)c1ccc(-c2ccc(OCCO)cc2)cc1 (stereo not drawn) [Compound 129]"
readout = "pIC50"
measured = "> 8.00"

[[record]]
molecule = "CNC(=O)C(C(=O)NO)N(C)C(=O)c1ccc(-c2cccc(OC)n2)cc1 (stereo not drawn) [Compound 296]"
readout = "pIC50"
measured = "< 7.00"

[[record]]
molecule = "O=C(NC(C(=O)NO)C(=O)NO)c1ccc(-c2ccc(OCCO)cc2)cc1 [Compound 148]"
readout = "pIC50"
measured = "7.00 to 8.00"

[[record]]
molecule = "CNC(=O)C(C(=O)NO)N(C)C(=O)c1ccc(-c2ccc(CNCC(C)(C)C)cc2)cc1 (stereo not drawn) [Compound 74]"
readout = "pIC50"
measured = "< 7.00"

[[record]]
molecule = "CNC(=O)C(C(=O)NO)N(C)C(=O)c1ccc(C#Cc2ccn(C)n2)cc1 (stereo not drawn) [Compound 418]"
readout = "pIC50"
measured = "< 7.00"


Any idea what pIC50 was measured for O=C(NC(C(=O)NO)C(=O)NCc1ccccc1)c1ccc(-c2ccc(OCCO)cc2)cc1 (stereo not drawn) [Compound 120] ?
> 8.00

# lookup: pIC50 of CNC(=O)C(C(=O)NO)N(C)C(=O)c1ccc(-c2ccc(NCCCCO)cc2)cc1 (stereo not drawn) [Compound 20]
7.00 to 8.00

What pIC50 value was documented for this molecule, CCCCc1ccc(C(=O)N(C)C(C(=O)NC)C(=O)NO)cc1 (stereo not drawn) [Compound 37] ?
7.00 to 8.00

May I ask what pIC50 has been recorded for Cn1cnc(CNC(=O)C(NC(=O)c2ccc(-c3ccc(OCCO)cc3)cc2)C(=O)NO)c1 (stereo not drawn) [Compound 158] ?
> 8.00

GET /values?readout=pIC50&item= CNC(=O)C(C(=O)NO)N(C)C(=O)c1ccc(-c2ccc(Cc3nn[nH]n3)cc2)cc1 (stereo not drawn) [Compound 60]
< 7.00

Fill in the blank: the reported pIC50 of CNC(=O)C(C(=O)NO)N(C)C(=O)c1ccc(-c2ccccc2)nc1 (stereo not drawn) [Compound 190] is ____.
< 7.00

Need pIC50, item CNC(=O)C(C(=O)NO)N(C)C(=O)c1ccc(-c2ccc3ncn(C)c3c2)cc1 (stereo not drawn) [Compound 282]
7.00 to 8.00

May I ask what pIC50 has been recorded for CNC(=O)C(C(=O)NO)N(C)C(=O)c1ccc(-c2ccc(OCCCN3CC(C)OC(C)C3)cc2)cc1 (stereo not drawn) [Compound 88] ?
> 8.00

Look up pIC50 for this molecule: CNC(=O)C(C(=O)NO)N(C)C(=O)c1ccc(-c2ccc(NCCO)cc2)cc1 (stereo not drawn) [Compound 179]
> 8.00

Entry under review: CC(=O)NCCNC(=O)C(NC(=O)c1ccc(-c2ccc(OCCO)cc2)cc1)C(=O)NO (stereo not drawn) [Compound 135] . Reported pIC50?
> 8.00

# lookup: pIC50 of CNC(=O)C(C(=O)NO)N(C)C(=O)c1ccc(C#Cc2ccc(CN3CCC(OC)CC3)cc2)cc1 (stereo not drawn) [Compound 383]
> 8.00

Could you tell me which pIC50 is on file for CNC(=O)C(C(=O)NO)N(C)C(=O)c1ccc(-c2ccc(OCCCNC3CC3)cc2)cc1 (stereo not drawn) [Compound 217] ?
7.00 to 8.00

pIC50 lookup needed for CNC(=O)C(C(=O)NO)N(C)C(=O)c1ccc(-c2ccc(C)nc2)cc1 (stereo not drawn) [Compound 450] , thanks.
< 7.00

Requested field: pIC50. Item: CNC(=O)C(C(=O)NO)N(C)C(=O)c1ccc(-c2ccc(CCOC)cc2)cc1 (stereo not drawn) [Compound 246]
> 8.00

Requested field: pIC50. Item: CNC(=O)C(C(=O)NO)N(C)C(=O)c1ccc(-c2ccc(N3CC(O)C3)cc2)cc1 (stereo not drawn) [Compound 244]
7.00 to 8.00

So what does the record say about pIC50 for CCOCc1ccc(-c2ccc(C(=O)N(C)C(C(=O)NC)C(=O)NO)cc2)cc1 (stereo not drawn) [Compound 285] ?
> 8.00

###

# Assayed system: Pseudomonas aeruginosa LpxC enzyme (Pseudomonas aeruginosa (strain ATCC 15692 / DSM 22644 / CIP 104116 / JCM 14847 / LMG 12228 / 1C / PRS 101 / PAO1))
# Test summary: biochemical
# Type: biochemical
# Conditions used: inhibitory activity on Pseudomonas aeruginosa LpxC enzyme, class symbols A/B/C; read-out: Enzyme inhibitory activity
The entries below are paired with their reported IC50.

Use these answered entries as a reference point.
[[record]]
compound = "CNC(=O)C(C(=O)NO)N(C)C(=O)c1ccc(-c2ccc(CN(C)OC)cc2)cc1 (centres unmarked)"
measured = "10 to 100 nM"

[[record]]
compound = "Cc1cccc(CNC(=O)C(NC(=O)c2ccc(-c3ccc(OCCO)cc3)cc2)C(=O)NO)n1 (centres unmarked)"
measured = "< 10 nM"

[[record]]
compound = "CCCCc1ccc(-c2ccc(C(=O)N(C)C(C(=O)NC)C(=O)NO)cc2)cn1 (centres unmarked)"
measured = "10 to 100 nM"

[[record]]
compound = "CNC(=O)C(C(=O)NO)N(C)C(=O)c1ccc(C#C/C=C/c2ccc(OC)nc2)cc1 (centres unmarked)"
measured = "< 10 nM"

[[record]]
compound = "CN(C)C(=O)CNC(=O)C(NC(=O)c1ccc(-c2ccc(OCCO)cc2)cc1)C(=O)NO (centres unmarked)"
measured = "< 10 nM"


Quick check: IC50 of O=C(NC(C(=O)NO)C(=O)Nc1cccnc1)c1ccc(-c2ccc(OCCO)cc2)cc1 (centres unmarked) ?
10 to 100 nM

Fill blank: measured IC50 of the compound CCCNc1ccc(-c2ccc(C(=O)N(C)C(C(=O)NC)C(=O)NO)cc2)cc1 (centres unmarked) is ____.
< 10 nM

What measured IC50 goes with CNC(=O)C(C(=O)NO)N(C)C(=O)c1ccc(-c2ccc(OCC3(C)COC3)cc2)cc1 (centres unmarked) ?
< 10 nM

Which IC50 reading was recorded for the compound CNC(=O)C(C(=O)NO)N(C)C(=O)c1ccc(-c2ccccc2F)cc1 (centres unmarked) ?
< 10 nM

# IC50 lookup, item CNC(=O)C(C(=O)NO)N(C)C(=O)c1cnc(-c2ccc(OC)cc2)c(F)c1 (centres unmarked)
10 to 100 nM
